Biological target: CHK1 (kinase domain) (Homo sapiens)
Sequence (O14757 9-265 limits assumed): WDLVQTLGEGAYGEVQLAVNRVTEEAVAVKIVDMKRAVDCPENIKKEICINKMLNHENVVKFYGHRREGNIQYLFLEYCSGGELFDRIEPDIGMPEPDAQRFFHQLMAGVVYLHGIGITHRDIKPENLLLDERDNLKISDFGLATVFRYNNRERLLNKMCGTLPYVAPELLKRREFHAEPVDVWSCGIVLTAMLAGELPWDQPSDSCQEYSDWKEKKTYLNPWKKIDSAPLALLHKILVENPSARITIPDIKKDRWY
Structures can show the parent of a compound that is named as a salt.
RESULT_TYPE: Ki (µM)

Before answering, review these 5 worked examples.
Cc1cn2c(-c3cncc(N[C@@H]4CCCN[C@H]4C)n3)cnc2s1 ... 0.00954
CCc1ccn2c(-c3cncc(N[C@@H]4CCNC4)n3)cnc2c1 ... 0.0112
COc1ccn2c(-c3cncc(N[C@@H]4C[C@@H]5CN[C@H]4C5)n3)cnc2c1 ... 0.00229
Cc1ncc(-c2cnc3ccccn23)nc1N[C@@H]1CCNC1 ... 0.0681
Cc1cn2c(-c3cncc(N[C@@H]4CCCN[C@@H]4C)n3)cnc2s1 [Example 161] ... 0.00147

P = CC1(Nc2cncc(-c3cnc4ccccn34)n2)CCNC1 (stereo not drawn)
Q = CC(C)c1ccc2ncc(-c3cncc(N[C@@H]4CCNC4)n3)n2c1
R = F[C@@H]1CCNC[C@@H]1Nc1cncc(-c2cnc3ccccn23)n1
S = Cc1cn2c(-c3cncc(N[C@@H]4CCCNC4)n3)cnc2cn1
T = C[C@@H]1CC[C@@H](Nc2cncc(-c3cnc4cccnn34)n2)CN1 [Example 84, acetate salt]
## Input Order the records, beginning with the lowest Ki and ending with the highest. Would you mind listing the labels in the order asked for?
## Output Q, S, P, R, T
(Q: 0.00609 µM, S: 0.0126 µM, P: 0.0284 µM, R: 0.0539 µM, T: 1 µM)

a = C[C@H]1NCCC[C@H]1Nc1cncc(-c2cnc3cc(C#N)ccn23)n1
b = COc1ccc2ncc(-c3cncc(N[C@@H]4CCNC4)n3)n2c1
## Input In terms of reported Ki, does a or b have the smaller number? Use the label to indicate which entry you chose.
## Output b

1 = CCOc1cc2ncn(-c3cncc(N[C@@H]4CCCNC4)n3)c2cn1
2 = Clc1cc2c(cn1)ncn2-c1cncc(N[C@@H]2CCCNC2)n1
## Input In terms of reported Ki, does 1 or 2 have the smaller number? Use the label to indicate which entry you chose.
## Output 1
(1: 0.00438 µM, 2: 0.0345 µM)
